Origin of measurements: patent US11161828B2

Item-by-item account of ED (2 x ED95)
System: Male New Zealand white rabbits
test.summary: Muscle relaxation test in anesthetized rabbits with neuromuscular transmission monitor (TOF)
Assay type: in vivo, rabbit
assay.conditions: Oryctolagus cuniculus, iv, intravenous injection, propofol general anesthesia
Method: Male New Zealand white rabbits weighing 2-3.5 kg were used as experimental animals for muscle relaxation test. The specific procedures were as follows: propofol emulsion was used to induce and maintain general anesthesia (induction dose: 10 mg/kg; maintenance dose: […]). Tracheal intubation was carried out and respiratory support was used.
// return numeric value only (unit: mg/kg, not printed)

Please review the entries below; each comes with its answer.
molecule: CC(OC(=O)CCC[N+]1(Cc2ccc(Cl)cc2Cl)CCCCC1)OC(=O)OCC[N+](C)(Cc1ccc(Cl)cc1)Cc1ccc(Cl)c(Cl)c1 (stereo not shown)
parameter: ED (2 x ED95)
value: 0.6

molecule: C[N+](CCOC(=O)OCOC(=O)CCC[N+]1(Cc2ccccc2Br)CCCCC1)(Cc1ccccc1Br)Cc1ccccc1Br
parameter: ED (2 x ED95)
value: 1.2

In the following, a different molecule is considered.
Tell me measured ED (2 x ED95) for COc1ccc(C[N+](C)(CCCCOC(=O)OC(C)OC(=O)C[N+]2(Cc3ccc(OC)c(OC)c3)CCCCC2)Cc2ccc(OC)c(OC)c2)cc1OC (stereo not shown) please. 1.4
